# MEASUREMENT_PROTOCOL: photoredox thiol-yne dihydrothiolation of acetylene by dithiol ([1+1] macrocyclisation, forms S-CH2CH2-S bridge); [Ir(d(tBu)(CF3)ppy)2(dtbbpy)]Cl 1 mol%, DIPEA 1.5 equiv, acetylene balloon, blue LEDs 455 nm
# EXPERIMENTAL_CONDITIONS: the molecule shown is the open-chain precursor; 16-membered ring; DMF/H2O 50:1; 50.0 mM; 25.0 °C; 12.0 h
METRIC_NAME: ring closure, isolated yield

| MOLECULE | METRIC_NAME | RESULT |
| --- | --- | --- |
| O=C(CCS)OCc1ccccc1COC(=O)CCS | ring closure, isolated yield | 39% |
| C[C@H](S)C(=O)NCC(=O)OCCCCCCS [50 (S per text; SI also names R)] | ring closure, isolated yield | 19% |
| O=C(CCS)OCCCCOC(=O)CCS | ring closure, isolated yield | 36% |
| SCCCOc1ccc2ccccc2c1-c1c(OCCCS)ccc2ccccc12 [43 ((R)-BINOL, axial stereo not in SMILES)] | ring closure, isolated yield | 40% |

====

# MEASUREMENT_PROTOCOL: photoredox thiol-yne dihydrothiolation of acetylene by dithiol ([1+1] macrocyclisation, forms S-CH2CH2-S bridge); [Ir(d(tBu)(CF3)ppy)2(dtbbpy)]Cl 1 mol%, DIPEA 1.5 equiv, acetylene balloon, blue LEDs 455 nm
# EXPERIMENTAL_CONDITIONS: the molecule shown is the open-chain precursor; 14-membered ring; DMF/H2O 50:1; 50.0 mM; 25.0 °C; 12.0 h
METRIC_NAME: ring closure, isolated yield (%)

| MOLECULE | UNIT_SPEC | RESULT |
| --- | --- | --- |
| O=C(OCCCCCCS)c1ccccc1S [33] | % | 25 |
| SCCCCCCCCCCS [60 substrate (only [2+2])] | % | 0 |
| O=C(CCS)O[C@H]1CCCC[C@@H]1OC(=O)CCS [49 (1S,2S per text; SI product procedure names 1R,2R)] | % | 38 |
| O=C(CCS)OCCOC(=O)CCS [5] | % | 42 |
| O=C(CS)OCCCCOC(=O)CS [4] | % | 32 |

====

Measured ring closure, isolated yield accompanies every entry in the list below.
# MEASUREMENT_PROTOCOL: photoredox thiol-yne dihydrothiolation of acetylene by dithiol ([1+1] macrocyclisation, forms S-CH2CH2-S bridge); [Ir(d(tBu)(CF3)ppy)2(dtbbpy)]Cl 1 mol%, DIPEA 1.5 equiv, acetylene balloon, blue LEDs 455 nm
# EXPERIMENTAL_CONDITIONS: the molecule shown is the open-chain precursor; 15-membered ring; DMF/H2O 50:1; 50.0 mM; 25.0 °C; 12.0 h

| MOLECULE | ring closure, isolated yield (%) |
| --- | --- |
| CC(C)(COC(=O)CCS)COC(=O)CCS | 32 |
| CC(CC(C)OC(=O)CCS)OC(=O)CCS (racemic) [8 (+/-)] | 33 |
| O=C(CCS)OCCCOC(=O)CCS | 30 |
| CC(COC(=O)CCS)COC(=O)CCS | 27 |

====

# MEASUREMENT_PROTOCOL: photoredox thiol-yne dihydrothiolation of acetylene by dithiol ([1+1] macrocyclisation, forms S-CH2CH2-S bridge); [Ir(d(tBu)(CF3)ppy)2(dtbbpy)]Cl 1 mol%, DIPEA 1.5 equiv, acetylene balloon, blue LEDs 455 nm
# EXPERIMENTAL_CONDITIONS: the molecule shown is the open-chain precursor; 22-membered ring; DMF/H2O 50:1; 50.0 mM; 25.0 °C; 12.0 h
METRIC_NAME: ring closure, isolated yield (%)

| COMPOUND | METRIC_NAME | UNIT_SPEC | RESULT |
| --- | --- | --- | --- |
| O=C(OCCCCCCS)C(F)(F)C(F)(F)C(=O)OCCCCCCS | ring closure, isolated yield | % | 33 |
| SCCCCCCOc1ccc2ccccc2c1-c1c(OCCCCCCS)ccc2ccccc12 [44 ((R)-BINOL, axial stereo not in SMILES)] | ring closure, isolated yield | % | 35 |
| O=C(CCS)OCCOc1ccc(OCCOC(=O)CCS)cc1 | ring closure, isolated yield | % | 22 |
| O=C(CCS)OCCCCCCCCCCOC(=O)CCS | ring closure, isolated yield | % | 20 |
